Test system: Phosphorylation of ERK1/2 in AsPC-1 cells
Assay: Phospho-ERK1/2 MSD Assay
Format: cell-based
Conditions: Homo sapiens, ASPC1, read-out: 2 h p-ERK (AsPC-1 cells), IC50; AsPC-1 cells, 2 h compound treatment
Field: pIC50. Provide a value for each of the compounds that follow.
pIC50 (log units): -log10 of the concentration in mol/L.

Input: Find the measured pIC50: item CCc1c(F)ccc2cc(O)cc(-c3ncc4c(N5CCC[C@@](C)(O)C5)nc(OC[C@@]56CCCN5C[C@H](F)C6)nc4c3F)c12 [Example 38] , target or system Phosphorylation of ERK1/2 in AsPC-1 cells.
Output: 8.30

Input: Find the measured pIC50: item CCc1c(F)ccc2cc(O)cc(-c3ncc4c(N5CCC[C@@](C)(O)C5)nc(OC[C@]56CCCN5C[C@H](F)C6)nc4c3F)c12 [Example 53] , target or system Phosphorylation of ERK1/2 in AsPC-1 cells.
Output: 7.89

Input: Find the measured pIC50: item CCc1c(F)ccc2cc(O)cc(-c3ncc4c(N5CCC[C@@](C)(O)C5)nc(OC[C@]56CCCN5C[C@@H](F)C6)nc4c3F)c12 [Example 178, bis(2,2,2-trifluoroacetate)] , target or system Phosphorylation of ERK1/2 in AsPC-1 cells.
Output: 8.10

Input: Find the measured pIC50: item [2H]C([2H])([2H])[C@]1(O)CCCN(c2nc(OC[C@@]34CCCN3C[C@H](F)C4)nc3c(F)c(-c4cc(O)cc5ccc(F)c(CC)c45)ncc23)C1 [Example 177] , target or system Phosphorylation of ERK1/2 in AsPC-1 cells.
Output: 6.96

Input: Find the measured pIC50: item [2H]C([2H])([2H])[C@@]1(O)CCCN(c2nc(OC[C@@]34CCCN3C[C@H](F)C4)nc3c(F)c(-c4cc(O)cc5ccc(F)c(CC)c45)ncc23)C1 [Example 176] , target or system Phosphorylation of ERK1/2 in AsPC-1 cells.
Output: 8.30

Ref: patent US20250034167A1
